# Tgt: Leucine aminopeptidase (Plasmodium falciparum 3D7)
# Sequence (Q8IL11 whole entry): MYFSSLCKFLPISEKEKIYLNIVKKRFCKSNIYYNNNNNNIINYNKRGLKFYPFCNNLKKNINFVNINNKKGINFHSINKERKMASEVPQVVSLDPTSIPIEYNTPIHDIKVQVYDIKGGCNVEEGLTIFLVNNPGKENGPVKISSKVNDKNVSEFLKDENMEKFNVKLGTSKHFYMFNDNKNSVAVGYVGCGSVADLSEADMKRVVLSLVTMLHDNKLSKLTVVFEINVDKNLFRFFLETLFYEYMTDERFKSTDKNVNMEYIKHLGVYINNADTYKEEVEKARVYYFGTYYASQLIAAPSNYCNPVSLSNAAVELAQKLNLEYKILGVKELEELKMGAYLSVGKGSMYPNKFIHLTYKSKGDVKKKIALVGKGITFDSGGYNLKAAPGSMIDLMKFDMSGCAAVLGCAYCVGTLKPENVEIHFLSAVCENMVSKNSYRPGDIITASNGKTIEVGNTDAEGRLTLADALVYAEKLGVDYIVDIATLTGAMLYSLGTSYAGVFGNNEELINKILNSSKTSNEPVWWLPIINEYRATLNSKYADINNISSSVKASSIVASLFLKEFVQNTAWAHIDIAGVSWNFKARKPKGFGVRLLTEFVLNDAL
# Assay overview: P. falciparum M17LAP inhibitors, primary screen, biochemical, fluorogenic H-Leu-NHMec substrate, 1536-well (AID 1619)
# Type: functional
Active and inactive are the calls of the source.
For each record, write down the corresponding IC50.

// solved cases for IC50 follow
Cc1ccc(Nc2nnc(SCc3cc(=O)n4ccsc4n3)s2)c(C)c1 = 6.49 µM (active)
COc1cccc(-c2[nH]nc3c2C(c2ccoc2)C(C#N)=C(N)O3)c1 (stereo unspecified) = 76.8 µM (active)
Cc1ccccc1C(=O)NNC(=S)NC(=O)c1ccccc1 = 91.2 µM (active)
CC(=O)Nc1c(O)nc(SCC(=O)Nc2cccc(C)c2)[nH]c1=O = 9.85 µM (active)
CCOC(=O)c1ccc(NC(=O)CSc2nc(C)cc(=O)[nH]2)cc1 = 11.8 µM (active)
Cc1cccc(Nc2nnc(S)s2)c1C = 9.62 µM (active)
CCCOc1ccc(NC(=O)C2CC(=O)N(C(C)C)C2)cc1 (stereo unspecified) = 99.7 µM (active)
CCOC(=O)CSc1nc2c(sc(=S)n2-c2ccccc2)c(=O)[nH]1 = 35.6 µM (active)

Batch request: IC50 per item, same order as input.
1. O=C(O)C1CC=CCC1C(=O)Nc1ccc2c(c1)OCCO2 (stereo unspecified)
2. CC1=NNC(=O)C1CC(=O)N/N=C(\C)c1cccs1 (stereo unspecified)
3. Cc1cc(O)nc(SCC(=O)Nc2ccccc2C#N)c1C#N

Out:
13.4 µM (active)
3.56 µM (active)
13.9 µM (active)

* * *

# Tgt: Sentrin-specific protease 6 (Homo sapiens, UniProt Q9GZR1)
# Sequence (Q9GZR1 whole entry): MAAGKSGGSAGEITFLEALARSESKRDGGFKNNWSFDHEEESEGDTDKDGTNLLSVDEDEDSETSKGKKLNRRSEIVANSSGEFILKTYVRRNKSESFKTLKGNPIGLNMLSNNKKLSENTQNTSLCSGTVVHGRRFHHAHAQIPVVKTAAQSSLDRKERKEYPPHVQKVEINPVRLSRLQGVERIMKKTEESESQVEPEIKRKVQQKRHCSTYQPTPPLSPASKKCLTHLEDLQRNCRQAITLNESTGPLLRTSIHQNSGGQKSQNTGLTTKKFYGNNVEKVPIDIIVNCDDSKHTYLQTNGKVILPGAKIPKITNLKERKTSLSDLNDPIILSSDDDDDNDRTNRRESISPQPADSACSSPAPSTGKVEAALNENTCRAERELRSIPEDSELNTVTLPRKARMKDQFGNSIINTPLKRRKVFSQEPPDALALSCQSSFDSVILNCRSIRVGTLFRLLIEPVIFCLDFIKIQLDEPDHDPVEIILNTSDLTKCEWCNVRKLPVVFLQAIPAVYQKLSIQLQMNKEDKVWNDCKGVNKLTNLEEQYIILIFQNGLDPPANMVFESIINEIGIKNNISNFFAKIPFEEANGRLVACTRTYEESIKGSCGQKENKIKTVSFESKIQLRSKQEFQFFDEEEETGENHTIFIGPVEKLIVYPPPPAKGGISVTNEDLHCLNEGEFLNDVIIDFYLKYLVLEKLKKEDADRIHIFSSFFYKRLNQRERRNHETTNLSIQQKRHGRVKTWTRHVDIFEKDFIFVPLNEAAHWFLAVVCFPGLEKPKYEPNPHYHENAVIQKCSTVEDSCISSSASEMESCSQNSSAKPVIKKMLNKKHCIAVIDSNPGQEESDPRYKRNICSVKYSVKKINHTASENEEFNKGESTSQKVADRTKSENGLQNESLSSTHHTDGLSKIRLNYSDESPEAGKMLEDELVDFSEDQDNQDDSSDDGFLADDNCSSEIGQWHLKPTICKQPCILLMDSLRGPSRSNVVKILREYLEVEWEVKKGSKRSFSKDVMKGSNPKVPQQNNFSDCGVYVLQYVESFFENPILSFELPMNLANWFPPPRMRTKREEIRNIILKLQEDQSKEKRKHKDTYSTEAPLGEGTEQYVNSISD
# Format: functional
Calls of active or inactive are those of the source.
What IC50 was measured for each of the following?

Cc1ccc(NC(=O)c2oc3ccccc3c2C)nc1 = 85.3 µM (active)
Cc1cc(-c2csc(Nc3ccccn3)n2)ccc1F = 12.5 µM (active)
O=C1C=C(Nc2ccccc2)c2ccccc2C1=O = 5.8 µM (active)
CC1OC(Nc2cccc3ccccc23)C(O)C(O)C1O (stereo unspecified) = 3.63 µM (active)
O=C1/C(=C/c2ccc([N+](=O)[O-])cc2)CCc2ccccc21 = 0.789 µM (active)

Now let's try a different one.
In plain terms, `O=c1cc(-c2ccc(O)cc2)oc2ccc(O)cc12` has a documented IC50 of 87.7 µM (active)

* * *

# Tgt: Methionyl-tRNA synthetase, putative (Trypanosoma brucei brucei)
# Sequence (Q38C91 whole entry): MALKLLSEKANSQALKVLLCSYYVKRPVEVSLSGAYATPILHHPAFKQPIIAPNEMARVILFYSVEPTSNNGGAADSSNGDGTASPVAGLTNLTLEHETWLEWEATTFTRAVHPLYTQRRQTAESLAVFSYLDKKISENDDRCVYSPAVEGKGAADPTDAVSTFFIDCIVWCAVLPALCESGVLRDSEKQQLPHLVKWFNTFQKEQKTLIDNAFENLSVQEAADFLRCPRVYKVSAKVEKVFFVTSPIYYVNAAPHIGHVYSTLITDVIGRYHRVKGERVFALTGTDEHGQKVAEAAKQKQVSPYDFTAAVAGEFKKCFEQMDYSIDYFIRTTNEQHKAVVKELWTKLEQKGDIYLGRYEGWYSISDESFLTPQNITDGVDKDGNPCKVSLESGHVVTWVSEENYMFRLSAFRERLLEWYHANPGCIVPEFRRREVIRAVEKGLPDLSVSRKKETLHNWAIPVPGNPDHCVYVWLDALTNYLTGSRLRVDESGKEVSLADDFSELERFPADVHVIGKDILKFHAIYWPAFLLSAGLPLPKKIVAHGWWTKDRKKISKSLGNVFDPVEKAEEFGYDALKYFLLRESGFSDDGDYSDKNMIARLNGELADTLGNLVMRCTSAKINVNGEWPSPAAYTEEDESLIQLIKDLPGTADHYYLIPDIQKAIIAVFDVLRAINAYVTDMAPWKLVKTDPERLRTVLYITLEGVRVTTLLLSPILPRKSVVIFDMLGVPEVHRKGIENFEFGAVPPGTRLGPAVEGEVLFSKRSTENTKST
# Format: functional, Trypanosoma brucei brucei strain 927/4 GUTat10.1
Calls of active or inactive are those of the source.
Value kind: IC50

Completed entries (count: 3):
O=C(NCC(O)COc1ccc([N+](=O)[O-])cc1)Nc1ccccc1 (centres undefined) = 9.32 µM (active)
COc1ccccc1-c1c[nH]c(C(O)c2cc(Cl)cc(Cl)c2)n1 (centres undefined) = 2.38 µM (active)
O=C(CCC(=O)Nc1cccc([N+](=O)[O-])c1)N/N=C/c1cccs1 = 5.26 µM (active)

IC50 reading for `O=C(NNC(=O)c1ccc(-n2cncn2)c([N+](=O)[O-])c1)c1ccc(Cl)cc1` : 2.72 µM (active)

* * *

# Tgt: UniProt Q9GZV3
# Sequence (Q9GZV3 whole entry): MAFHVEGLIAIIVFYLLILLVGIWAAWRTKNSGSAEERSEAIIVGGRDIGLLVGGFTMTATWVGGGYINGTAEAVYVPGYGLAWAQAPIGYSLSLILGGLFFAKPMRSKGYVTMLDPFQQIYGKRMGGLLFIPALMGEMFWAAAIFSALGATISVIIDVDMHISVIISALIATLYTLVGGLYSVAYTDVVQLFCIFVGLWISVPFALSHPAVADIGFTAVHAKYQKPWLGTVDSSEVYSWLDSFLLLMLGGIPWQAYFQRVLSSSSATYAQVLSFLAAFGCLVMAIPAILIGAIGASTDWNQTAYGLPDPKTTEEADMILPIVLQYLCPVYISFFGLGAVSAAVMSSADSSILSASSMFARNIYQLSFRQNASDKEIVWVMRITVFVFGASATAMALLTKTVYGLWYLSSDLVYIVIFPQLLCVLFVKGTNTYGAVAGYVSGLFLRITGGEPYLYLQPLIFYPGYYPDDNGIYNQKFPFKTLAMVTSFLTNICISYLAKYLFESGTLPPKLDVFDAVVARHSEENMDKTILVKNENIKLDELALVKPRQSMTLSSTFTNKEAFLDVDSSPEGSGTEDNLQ
# Assay overview: human choline transporter blockers, potency – cell-based, 5-point CRC, membrane potential dye, dose response (AID 504840)
# Type: functional
Active and inactive are the calls of the source.
Value kind: IC50

Worked cases, IC50 given:
COc1ccc(OCC(=O)OCCN(C)C)cc1 = 14.5 µM (active)
Cc1ccc(NS(=O)(=O)c2cccc(C(=O)NCC(c3ccco3)N3CCCCC3)c2)cc1 (centres undefined) = 9.8 µM (active)
COc1ccc(-c2cc(=O)c3cc(O)ccc3o2)cc1 = 4.38 µM (active)

I would be grateful if you could provide IC50 for each of the following entries.
1. Cc1ccccc1C(=O)NNC(=S)NC(=O)c1ccccc1
2. Cc1cc2nc(C)c(Cl)c(O)n2n1
3. CC1CCC(NC(=O)c2cccc(S(=O)(=O)N3CCN(C)CC3)c2)CC1 (centres undefined)
4. Cc1ccc2nsnc2c1S(=O)(=O)N1CCN(CCc2ccccc2)CC1
5. Brc1ccc2c(c1)C(OC1CN3CCC1CC3)c1ccccc1CS2 (centres undefined)

Out:
12.6 µM (active)
13.2 µM (active)
4.17 µM (active)
11.8 µM (active)
16 µM (active)

Consider CC(SCc1ccccc1)C(=O)N/N=C/c1ccc(OCC(=O)NCc2ccco2)cc1 (centres undefined) . Its measured IC50 is 2 µM (active)
